target: Nox5 (Homo sapiens, UniProt Q96PH1); assay: Nox5 activity in HEK-Nox5 cells, L-012 assay; conditions: HEK-Nox5 cells stimulated with 1 μM PMA and 0.5 ionomycin; L-012; read-out: IC50 of ROS generation, Nox5 (L-012 assay)
Recorded IC50 values for a group of molecules are listed next.
readout.name: IC50

C=C(C)CC1C2c3c(Br)cccc3C(CC2(C)C)N1CCCCC (racemic) [Compound 11g]	> 100 µM
C=C(C)CC1NC2CC(C)(C)C1c1ccccc12 (racemic)	> 100 µM
C=C(C)CC1C2c3ccccc3C(CC2(C)C)N1Cc1cccc(F)c1 (racemic) [Compound 11a]	50 µM
C=C(C)CC1NC2CC(C)(C)C1c1c(-c3ccc(Cl)c(Cl)c3)cccc12 (racemic) [Compound 12a]	14 µM
C=C(C)CC1C2c3c(Br)cccc3C(CC2(C)C)N1S(=O)(=O)c1ccc(F)cc1 (racemic) [Compound 14b]	> 100 µM
C=C(C)CC1C2c3c(Br)cccc3C(CC2(C)C)N1Cc1ccnc2ccccc12 (racemic) [Compound 11b]	> 100 µM
C=C(C)CC1C2c3c(Br)cccc3C(CC2(C)C)N1Cc1ccc2c(c1)OCO2 (racemic) [Compound 11d]	> 100 µM
C=C(C)CC1C2c3c(Br)cccc3C(CC2(C)C)N1S(C)(=O)=O (racemic) [Compound 14a]	> 100 µM

---

The following compounds are shown together with reported IC50 values.
Target: Nox5 (Homo sapiens)
Sequence (Q96PH1 19-737 isoform Q96PH1-3 limits assumed): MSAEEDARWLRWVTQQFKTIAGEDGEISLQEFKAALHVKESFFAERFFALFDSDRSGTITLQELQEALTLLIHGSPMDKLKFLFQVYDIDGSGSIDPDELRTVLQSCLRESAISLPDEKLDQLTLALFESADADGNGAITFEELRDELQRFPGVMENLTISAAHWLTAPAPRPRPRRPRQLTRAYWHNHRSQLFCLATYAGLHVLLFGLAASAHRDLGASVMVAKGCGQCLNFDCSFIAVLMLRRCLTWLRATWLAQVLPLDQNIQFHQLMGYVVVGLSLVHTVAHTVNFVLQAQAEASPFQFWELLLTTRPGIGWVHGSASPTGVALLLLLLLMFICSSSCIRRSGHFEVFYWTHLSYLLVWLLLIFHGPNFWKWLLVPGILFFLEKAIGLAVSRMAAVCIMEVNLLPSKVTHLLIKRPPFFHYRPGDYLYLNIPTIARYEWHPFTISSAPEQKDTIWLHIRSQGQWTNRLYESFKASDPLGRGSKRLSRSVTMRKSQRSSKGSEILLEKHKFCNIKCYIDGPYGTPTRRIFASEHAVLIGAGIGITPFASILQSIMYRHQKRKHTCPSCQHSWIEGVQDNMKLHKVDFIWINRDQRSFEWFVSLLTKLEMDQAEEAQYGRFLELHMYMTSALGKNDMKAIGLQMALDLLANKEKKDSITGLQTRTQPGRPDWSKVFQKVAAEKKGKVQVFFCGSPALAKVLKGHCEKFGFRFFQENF
Experiment: Nox5 activity in HEK-Nox5 cells, L-012 assay
Conditions: HEK-Nox5 cells stimulated with 1 μM PMA and 0.5 ionomycin; L-012; read-out: IC50 of ROS generation, Nox5 (L-012 assay)
readout.name: IC50 (µM)

CC(C)CC1NC2CC(C)(C)C1c1c(Br)cccc12 (racemic)	18
C=C(C)CC1C2c3c(Br)cccc3C(CC2(C)C)N1Cc1cccc(F)c1 (racemic) [Compound 11f]	79
C=C(C)C[C@@H]1N[C@H]2CC(C)(C)[C@@H]1c1c(Br)ccc(Br)c12	36

---

// IC50 lookup, one value per entry
Target: Nox2 (Homo sapiens)
Construct: expressed in transfected cells
Assay: ROS (H2O2) generation in whole COS-Nox2 cells, Amplex Red assay
Assay type: cell-based
Conditions: whole COS-Nox2 cells stimulated with 5 μM PMA; Amplex Red
Experimental: All cell culture reagents were obtained from Invitrogen, unless indicated. […] H2O2 production was quantified in intact COS-Nox4 cells by Amplex® Red. […] Fluorescence measurements were made using a Biotek Synergy 4 Hybrid Multi-Mode Microplate Reader with a 530/25-excitation and a 590/35-emission filter. The reaction was monitored at 37° C. for 1 h. […] The rate of H2O2 production in this case was calculated as RFU/min after the subtraction of the equivalent value given by non-stimulated cells. […]
readout.name: IC50

C=C(C)CC1C2c3c(Br)cccc3C(CC2(C)C)N1Cc1c[nH]c2ccccc12 (racemic) [Compound 11c]	> 100 µM
C=C(C)CC1C2c3c(Br)cccc3C(CC2(C)C)N1S(=O)(=O)c1ccc(F)cc1 (racemic) [Compound 14b]	> 100 µM
C=C(C)CC1NC2CC(C)(C)C1c1c(-c3cccnc3)cccc12 (racemic) [Compound 12d]	> 100 µM
C=C(C)CC1C2c3c(Br)cccc3C(CC2(C)C)N1Cc1ccnc2ccccc12 (racemic) [Compound 11b]	> 100 µM
C=C(C)CC1C2c3c(Br)cccc3C(CC2(C)C)N1Cc1cc(C)on1 (racemic) [Compound 11e]	12 µM
C=C(C)CC1C2c3c(Br)cccc3C(CC2(C)C)N1Cc1ccc2c(c1)OCO2 (racemic) [Compound 11d]	40 µM
C=C(C)CC1C2c3ccccc3C(CC2(C)C)N1Cc1cccc(F)c1 (racemic) [Compound 11a]	30 µM
C=C(C)CC1C2c3c(Br)cccc3C(CC2(C)C)N1Cc1cccc(F)c1 (racemic) [Compound 11f]	51 µM

---

target: Nox5 (Homo sapiens); construct: expressed in transfected cells; host or cells: HEK-Nox5 cells (gift of D. Fulton); test: Nox5 activity in HEK-Nox5 cells, L-012 assay; assay type: cell-based; settings: Table 2
readout.name: Nox5 inhibitory activity

C=C(C)C[C@@H]1N[C@H]2CC(C)(C)[C@@H]1c1c(Br)ccc(Br)c12	active
C=C(C)CC1C2c3ccccc3C(CC2(C)C)N1Cc1cccc(F)c1 (racemic) [Compound 11a]	inhibited
C=C(C)CC1C2c3c(Br)cccc3C(CC2(C)C)N1Cc1cccs1 (racemic) [Compound 11h]	virtually no effect
C=C(C)CC1NC2CC(C)(C)C1c1c(Br)cccc12 (racemic)	active
C=C(C)CC1C2c3c(Br)cccc3C(CC2(C)C)N1Cc1cccc(F)c1 (racemic) [Compound 11f]	inhibited
C=C(C)CC1C2c3c(Br)cccc3C(CC2(C)C)N1Cc1cc(C)on1 (racemic) [Compound 11e]	inhibited
C=C(C)CC1C2c3c(Br)cccc3C(CC2(C)C)N1CCCCC (racemic) [Compound 11g]	virtually no effect

---

target: Nox1 (Homo sapiens, UniProt Q9Y5S8); construct: Plasmids encoding full-length human cDNAs for Nox1 (pcDNA3.1-hNox1); experiment: Constitutive Nox1 activity in transiently transfected COS-Nox1/NOXO1/NOXA1 cells, L-012 assay; conditions: constitutive activity, transiently transfected Cos-Nox1 cells; L-012; read-out: IC50 of ROS generation, Nox1 (L-012 assay)
Sequence (Q9Y5S8 whole entry): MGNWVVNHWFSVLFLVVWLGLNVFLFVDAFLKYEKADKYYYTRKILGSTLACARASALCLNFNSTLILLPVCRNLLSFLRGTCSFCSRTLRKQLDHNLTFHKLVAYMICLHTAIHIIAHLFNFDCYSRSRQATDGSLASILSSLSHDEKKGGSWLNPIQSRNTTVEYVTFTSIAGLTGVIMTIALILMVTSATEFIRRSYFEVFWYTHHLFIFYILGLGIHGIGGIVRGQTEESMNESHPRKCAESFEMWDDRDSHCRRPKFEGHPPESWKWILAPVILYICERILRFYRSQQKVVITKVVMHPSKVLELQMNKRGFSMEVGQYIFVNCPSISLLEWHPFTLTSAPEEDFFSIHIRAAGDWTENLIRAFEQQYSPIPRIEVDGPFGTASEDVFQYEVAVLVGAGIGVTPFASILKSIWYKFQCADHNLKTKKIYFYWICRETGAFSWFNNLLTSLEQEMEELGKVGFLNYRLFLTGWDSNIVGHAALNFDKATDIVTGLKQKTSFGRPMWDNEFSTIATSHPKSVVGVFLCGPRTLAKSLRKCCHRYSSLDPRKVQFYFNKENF
Sequence (P13498 2-195 partner limits assumed): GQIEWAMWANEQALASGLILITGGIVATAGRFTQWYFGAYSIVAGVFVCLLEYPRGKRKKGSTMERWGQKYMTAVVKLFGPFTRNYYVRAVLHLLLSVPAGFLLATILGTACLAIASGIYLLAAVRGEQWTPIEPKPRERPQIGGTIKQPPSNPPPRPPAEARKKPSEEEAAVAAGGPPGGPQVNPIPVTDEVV
IC50 values, listed per item
readout.name: IC50

C=C(C)CC1C2c3c(-c4ccc(Cl)c(Cl)c4)cccc3C(CC2(C)C)N1CCCCC (racemic) [Compound 12c]	> 100 µM
CC(C)CC1NC2CC(C)(C)C1c1c(Br)cccc12 (racemic)	32 µM
C=C(C)CC1C2c3c(Br)cccc3C(CC2(C)C)N1Cc1ccnc2ccccc12 (racemic) [Compound 11b]	> 100 µM
C=C(C)CC1C2c3c(-c4ccc(Cl)c(Cl)c4)cccc3C(CC2(C)C)N1Cc1ccc2c(c1)OCO2 (racemic) [Compound 12b]	> 100 µM
C=C(C)CC1C2c3c(Br)cccc3C(CC2(C)C)N1Cc1ccc2c(c1)OCO2 (racemic) [Compound 11d]	> 100 µM
C=C(C)CC1C2c3c(Br)cccc3C(CC2(C)C)N1Cc1cccc(F)c1 (racemic) [Compound 11f]	> 100 µM
C=C(C)CC1C2c3ccccc3C(CC2(C)C)N1Cc1cccc(F)c1 (racemic) [Compound 11a]	> 100 µM
C=C(C)C[C@@H]1N[C@H]2CC(C)(C)[C@@H]1c1c(Br)ccc(Br)c12	60 µM

---

molecular target: Nox2 (Homo sapiens, UniProt P04839); construct: expressed in transfected cells; test: ROS (H2O2) generation in whole COS-Nox2 cells, Amplex Red assay; assay type: cell-based; conditions: Table 2
Sequence (P04839 2-570 limits assumed): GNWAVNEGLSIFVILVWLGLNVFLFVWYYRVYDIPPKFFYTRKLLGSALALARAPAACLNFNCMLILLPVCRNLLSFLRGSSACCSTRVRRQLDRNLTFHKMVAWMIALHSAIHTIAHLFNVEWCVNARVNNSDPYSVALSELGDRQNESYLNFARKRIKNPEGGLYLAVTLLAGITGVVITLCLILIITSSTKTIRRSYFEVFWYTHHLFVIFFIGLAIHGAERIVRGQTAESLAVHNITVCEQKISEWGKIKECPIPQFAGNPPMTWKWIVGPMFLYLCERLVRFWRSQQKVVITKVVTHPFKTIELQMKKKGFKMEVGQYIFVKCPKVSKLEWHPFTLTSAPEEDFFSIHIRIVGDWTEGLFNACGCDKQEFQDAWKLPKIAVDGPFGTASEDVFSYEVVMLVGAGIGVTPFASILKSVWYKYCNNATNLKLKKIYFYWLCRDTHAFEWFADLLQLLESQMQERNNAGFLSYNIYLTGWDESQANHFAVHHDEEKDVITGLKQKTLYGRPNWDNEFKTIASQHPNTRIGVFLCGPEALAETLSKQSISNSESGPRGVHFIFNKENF
readout.name: Nox2 inhibitory activity

C=C(C)CC1NC2CC(C)(C)C1c1c(-c3cccnc3)cccc12 (racemic) [Compound 12d]	inactive
C=C(C)CC1C2c3c(-c4ccc(Cl)c(Cl)c4)cccc3C(CC2(C)C)N1Cc1ccc2c(c1)OCO2 (racemic) [Compound 12b]	inactive

---

molecular target: Nox2 (Homo sapiens, UniProt P04839); construct: expressed in transfected cells; experiment: ROS (H2O2) generation in whole COS-Nox2 cells, Amplex Red assay; type: cell-based; conditions: Table 2
readout.name: Nox2 inhibitory activity

C=C(C)CC1C2c3c(-c4ccc(Cl)c(Cl)c4)cccc3C(CC2(C)C)N1CCCCC (racemic) [Compound 12c]	inactive
C=C(C)CC1NC2CC(C)(C)C1c1ccccc12 (racemic) [Compound 8]	inactive
